biological target: RAC-alpha serine/threonine-protein kinase (Homo sapiens, UniProt P31749); experiment: Induction of AKT1 degradation in human NCI-H1975 cells assessed as reduction in AKT1 protein level incubated for 24 hrs under serum free medium by Western blot analysis
Sequence (P31749 whole entry): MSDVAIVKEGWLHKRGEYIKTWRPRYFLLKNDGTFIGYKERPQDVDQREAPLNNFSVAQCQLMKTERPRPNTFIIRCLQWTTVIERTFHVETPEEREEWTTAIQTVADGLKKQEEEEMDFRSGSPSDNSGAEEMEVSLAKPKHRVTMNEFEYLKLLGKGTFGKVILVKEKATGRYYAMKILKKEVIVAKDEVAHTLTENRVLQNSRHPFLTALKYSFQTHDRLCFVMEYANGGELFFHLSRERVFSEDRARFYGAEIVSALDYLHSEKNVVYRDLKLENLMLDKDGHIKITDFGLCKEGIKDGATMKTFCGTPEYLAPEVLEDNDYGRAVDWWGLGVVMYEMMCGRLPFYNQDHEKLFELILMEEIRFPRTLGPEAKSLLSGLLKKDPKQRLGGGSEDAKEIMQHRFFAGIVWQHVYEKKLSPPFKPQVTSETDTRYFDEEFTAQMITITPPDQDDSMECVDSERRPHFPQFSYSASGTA
pEC50: −log10 of the molar value.
VALUE TYPE: pEC50

Find the measured pEC50 of C=CC(=O)Nc1cccc(-n2c(=O)cc(C)c3cnc(Nc4ccc(N5CCN(CCOCCOCCNC(=O)CC67CC8CC(CC(C8)C6)C7)CC5)cc4OC)nc32)c1 with RAC-alpha serine/threonine-protein kinase (Homo sapiens, UniProt P31749) as test system. 6.52

Find the measured pEC50 of C=CC(=O)Nc1cccc(-n2c(=O)cc(C)c3cnc(Nc4ccc(N5CCN(CCCCCCCCCCCCNC(=O)CC67CC8CC(CC(C8)C6)C7)CC5)cc4OC)nc32)c1 with RAC-alpha serine/threonine-protein kinase (Homo sapiens, UniProt P31749) as test system. < 6.00

Find the measured pEC50 of CCC(=O)Nc1cccc(-n2c(=O)cc(C)c3cnc(Nc4ccc(N5CCN(CCCCCCCCCCCCNC(=O)CC67CC8CC(CC(C8)C6)C7)CC5)cc4OC)nc32)c1 with RAC-alpha serine/threonine-protein kinase (Homo sapiens, UniProt P31749) as test system. < 6.00

Find the measured pEC50 of COc1cc(N2CCN(CCCCCCCCCCCCNC(=O)CC34CC5CC(CC(C5)C3)C4)CC2)ccc1Nc1ncc2c(C)cc(=O)n(-c3cccc(NC(=O)C(C)(C)C)c3)c2n1 with RAC-alpha serine/threonine-protein kinase (Homo sapiens, UniProt P31749) as test system. < 6.00

Find the measured pEC50 of C=CC(=O)Nc1ccc(-n2c(=O)cc(C)c3cnc(Nc4ccc(N5CCN(CCCCCCCCCCCCNC(=O)CC67CC8CC(CC(C8)C6)C7)CC5)cc4OC)nc32)cc1 with RAC-alpha serine/threonine-protein kinase (Homo sapiens, UniProt P31749) as test system. < 6.00

Find the measured pEC50 of C=CC(=O)Nc1cccc(-n2c(=O)cc(C)c3cnc(Nc4ccc(N5CCN(CCCCCCCCNC(=O)CC67CC8CC(CC(C8)C6)C7)CC5)cc4OC)nc32)c1 with RAC-alpha serine/threonine-protein kinase (Homo sapiens, UniProt P31749) as test system. 6.77

* * *

target: Epidermal growth factor receptor (Homo sapiens, UniProt P00533, T790M); test: Inhibition of EGFR T790M mutant in human NCI-H1975 cells incubated for 24 hrs under serum free medium by Western blot analysis
Sequence (P00533 25-1210 T790M limits assumed): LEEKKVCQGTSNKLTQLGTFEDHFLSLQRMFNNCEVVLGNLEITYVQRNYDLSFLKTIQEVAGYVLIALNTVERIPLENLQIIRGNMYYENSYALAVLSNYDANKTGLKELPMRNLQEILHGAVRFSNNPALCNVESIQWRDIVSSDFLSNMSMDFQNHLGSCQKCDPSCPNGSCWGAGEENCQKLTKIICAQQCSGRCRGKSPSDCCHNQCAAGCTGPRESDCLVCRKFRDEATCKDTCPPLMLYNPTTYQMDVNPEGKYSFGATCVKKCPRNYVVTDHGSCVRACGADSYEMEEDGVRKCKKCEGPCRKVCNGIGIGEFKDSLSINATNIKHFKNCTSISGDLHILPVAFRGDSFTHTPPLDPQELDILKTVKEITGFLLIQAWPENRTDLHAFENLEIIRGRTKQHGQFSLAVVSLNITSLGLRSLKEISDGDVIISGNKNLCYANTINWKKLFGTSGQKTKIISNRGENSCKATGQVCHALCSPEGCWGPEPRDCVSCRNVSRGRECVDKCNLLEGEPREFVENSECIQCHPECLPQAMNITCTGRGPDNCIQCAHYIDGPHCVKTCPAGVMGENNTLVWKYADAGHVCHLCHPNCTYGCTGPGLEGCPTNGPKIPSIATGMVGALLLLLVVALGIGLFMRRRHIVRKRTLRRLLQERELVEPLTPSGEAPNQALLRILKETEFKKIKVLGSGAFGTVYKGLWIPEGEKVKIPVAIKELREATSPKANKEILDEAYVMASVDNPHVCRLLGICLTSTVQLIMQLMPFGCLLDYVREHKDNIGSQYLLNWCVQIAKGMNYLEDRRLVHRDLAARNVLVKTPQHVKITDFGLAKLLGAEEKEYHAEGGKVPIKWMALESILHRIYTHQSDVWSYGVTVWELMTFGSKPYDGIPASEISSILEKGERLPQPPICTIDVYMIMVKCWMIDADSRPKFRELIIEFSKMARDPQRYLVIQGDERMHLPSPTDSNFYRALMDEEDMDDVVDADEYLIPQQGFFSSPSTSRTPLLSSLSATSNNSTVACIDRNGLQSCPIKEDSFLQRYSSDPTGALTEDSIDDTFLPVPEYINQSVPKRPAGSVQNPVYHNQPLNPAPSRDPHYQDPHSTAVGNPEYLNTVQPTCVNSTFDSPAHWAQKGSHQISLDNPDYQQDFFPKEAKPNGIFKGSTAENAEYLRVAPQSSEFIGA
VALUE TYPE: EC50 (nM)
# number only, unit nM dropped from output

Assign EC50 to the following record: C=CC(=O)Nc1cccc(-n2c(=O)cc(C)c3cnc(Nc4ccc(N5CCN(CCCCCCCCCCCCNC(=O)CC67CC8CC(CC(C8)C6)C7)CC5)cc4OC)nc32)c1 20.1

* * *

I'd appreciate it if you could supply log10(EC50) values for the items below.
biological target: RAC-gamma serine/threonine-protein kinase (Homo sapiens, UniProt Q9Y243); test: Induction of AKT3 degradation in human NCI-H1975 cells assessed as reduction in AKT3 protein level incubated for 24 hrs under serum free medium by Western blot analysis
Sequence (Q9Y243 whole entry): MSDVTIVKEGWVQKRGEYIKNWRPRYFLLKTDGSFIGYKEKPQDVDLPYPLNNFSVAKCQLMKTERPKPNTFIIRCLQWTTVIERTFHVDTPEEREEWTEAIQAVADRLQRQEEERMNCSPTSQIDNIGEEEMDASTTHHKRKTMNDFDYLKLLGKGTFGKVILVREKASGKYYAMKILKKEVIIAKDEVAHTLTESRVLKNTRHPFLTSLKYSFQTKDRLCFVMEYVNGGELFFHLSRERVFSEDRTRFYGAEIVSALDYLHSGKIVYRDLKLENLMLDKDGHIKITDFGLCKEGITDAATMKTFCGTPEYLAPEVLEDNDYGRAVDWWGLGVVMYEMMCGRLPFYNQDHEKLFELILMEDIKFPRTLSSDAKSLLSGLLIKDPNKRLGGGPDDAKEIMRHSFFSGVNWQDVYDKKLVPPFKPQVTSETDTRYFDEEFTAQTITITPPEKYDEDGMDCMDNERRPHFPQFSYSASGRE
Short version: log10 scale, EC50, nM.

Assign log10(EC50) to the following record: C=CC(=O)Nc1cccc(-n2c(=O)cc(C)c3cnc(Nc4ccc(N5CCN(CCCCCCCCNC(=O)CC67CC8CC(CC(C8)C6)C7)CC5)cc4OC)nc32)c1 1.72

Assign log10(EC50) to the following record: COc1cc(N2CCN(CCCCCCCCCCCCNC(=O)CC34CC5CC(CC(C5)C3)C4)CC2)ccc1Nc1ncc2c(C)cc(=O)n(-c3cccc(NC(=O)C(C)C)c3)c2n1 1.52

Assign log10(EC50) to the following record: C=CC(=O)Nc1cccc(-n2c(=O)cc(C)c3cnc(Nc4ccc(N5CCN(CCOCCOCCNC(=O)CC67CC8CC(CC(C8)C6)C7)CC5)cc4OC)nc32)c1 2.75

Assign log10(EC50) to the following record: C=CC(=O)Nc1cccc(-n2c(=O)cc(C)c3cnc(Nc4ccc(N5CCN(CCCCCCCCCCCCCCNC(=O)CC67CC8CC(CC(C8)C6)C7)CC5)cc4OC)nc32)c1 2.08

Assign log10(EC50) to the following record: C=CC(=O)Nc1cccc(-n2c(=O)cc(C)c3cnc(Nc4ccc(N5CCN(CCCCCCCCCCCCNC(=O)CC67CC8CC(CC(C8)C6)C7)CC5)cc4OC)nc32)c1 1.72

Assign log10(EC50) to the following record: C=CC(=O)Nc1cccc(-n2c(=O)cc(C)c3cnc(Nc4ccc(N5CCN(CCCCCCCCCCNC(=O)CC67CC8CC(CC(C8)C6)C7)CC5)cc4OC)nc32)c1 2.60

Assign log10(EC50) to the following record: CCC(=O)Nc1cccc(-n2c(=O)cc(C)c3cnc(Nc4ccc(N5CCN(CCCCCCCCCCCCNC(=O)CC67CC8CC(CC(C8)C6)C7)CC5)cc4OC)nc32)c1 1.53

Assign log10(EC50) to the following record: COc1cc(N2CCN(CCCCCCCCCCCCNC(=O)CC34CC5CC(CC(C5)C3)C4)CC2)ccc1Nc1ncc2c(C)cc(=O)n(-c3cccc(NC(C)=O)c3)c2n1 1.83

Assign log10(EC50) to the following record: COc1cc(N2CCN(CCCCCCCCCCCCNC(=O)CC34CC5CC(CC(C5)C3)C4)CC2)ccc1Nc1ncc2c(C)cc(=O)n(-c3cccc(NC(=O)C4CC4)c3)c2n1 1.11

* * *

biological target: RAC-gamma serine/threonine-protein kinase (Homo sapiens); assay: Induction of AKT3 degradation in human NCI-H1975 cells assessed as reduction in AKT3 protein level incubated for 24 hrs under serum free medium by Western blot analysis
VALUE TYPE: pEC50
// returns pEC50 (minus log10 of molar concentration), number only

Find the measured pEC50 of COc1cc(N2CCN(CCCCCCCCCCCCNC(=O)CC34CC5CC(CC(C5)C3)C4)CC2)ccc1Nc1ncc2c(C)cc(=O)n(-c3cccc(N)c3)c2n1 with RAC-gamma serine/threonine-protein kinase (Homo sapiens) as test system. 6.99

Find the measured pEC50 of C=CC(=O)Nc1cccc(-n2c(=O)cc(C)c3cnc(Nc4ccc(N5CCN(CCCCCCNC(=O)CC67CC8CC(CC(C8)C6)C7)CC5)cc4OC)nc32)c1 with RAC-gamma serine/threonine-protein kinase (Homo sapiens) as test system. 6.00

Find the measured pEC50 of COc1cc(N2CCN(CCCCCCCCCCCCNC(=O)CC34CC5CC(CC(C5)C3)C4)CC2)ccc1Nc1ncc2c(C)cc(=O)n(-c3cccc(NC(=O)C(C)(C)C)c3)c2n1 with RAC-gamma serine/threonine-protein kinase (Homo sapiens) as test system. 7.24

* * *

target: RAC-gamma serine/threonine-protein kinase (Homo sapiens, UniProt Q9Y243); test: Induction of AKT3 degradation in human NCI-H1975 cells assessed as reduction in AKT3 protein level at 1000 nM incubated for 24 hrs under serum free medium by Western blot analysis relative to control; format: cell-based
VALUE TYPE: Emax (%)
# number only, unit % dropped from output

Find the measured Emax of COc1cc(N2CCN(CCCCCCCCCCCCNC(=O)CC34CC5CC(CC(C5)C3)C4)CC2)ccc1Nc1ncc2c(C)cc(=O)n(-c3cccc(N)c3)c2n1 with RAC-gamma serine/threonine-protein kinase (Homo sapiens, UniProt Q9Y243) as test system. 77

Find the measured Emax of COc1cc(N2CCN(CCCCCCCCCCCCNC(=O)CC34CC5CC(CC(C5)C3)C4)CC2)ccc1Nc1ncc2c(C)cc(=O)n(-c3cccc(NC(=O)C(C)C)c3)c2n1 with RAC-gamma serine/threonine-protein kinase (Homo sapiens, UniProt Q9Y243) as test system. 71

Find the measured Emax of C=CC(=O)Nc1cccc(-n2c(=O)cc(C)c3cnc(Nc4ccc(N5CCN(CCCCCCCCCCCCNC(=O)CC67CC8CC(CC(C8)C6)C7)CC5)cc4OC)nc32)c1 with RAC-gamma serine/threonine-protein kinase (Homo sapiens, UniProt Q9Y243) as test system. 73

Find the measured Emax of CCC(=O)Nc1cccc(-n2c(=O)cc(C)c3cnc(Nc4ccc(N5CCN(CCCCCCCCCCCCNC(=O)CC67CC8CC(CC(C8)C6)C7)CC5)cc4OC)nc32)c1 with RAC-gamma serine/threonine-protein kinase (Homo sapiens, UniProt Q9Y243) as test system. 74

Find the measured Emax of C=CC(=O)Nc1cccc(-n2c(=O)cc(C)c3cnc(Nc4ccc(N5CCN(CCCCCCCCCCNC(=O)CC67CC8CC(CC(C8)C6)C7)CC5)cc4OC)nc32)c1 with RAC-gamma serine/threonine-protein kinase (Homo sapiens, UniProt Q9Y243) as test system. 51

Find the measured Emax of C=CC(=O)Nc1cccc(-n2c(=O)cc(C)c3cnc(Nc4ccc(N5CCN(CCCCCCCCCCCCCCNC(=O)CC67CC8CC(CC(C8)C6)C7)CC5)cc4OC)nc32)c1 with RAC-gamma serine/threonine-protein kinase (Homo sapiens, UniProt Q9Y243) as test system. 75

Find the measured Emax of C=CC(=O)Nc1cccc(-n2c(=O)cc(C)c3cnc(Nc4ccc(N5CCN(CCCCCCCCNC(=O)CC67CC8CC(CC(C8)C6)C7)CC5)cc4OC)nc32)c1 with RAC-gamma serine/threonine-protein kinase (Homo sapiens, UniProt Q9Y243) as test system. 75

Find the measured Emax of COc1cc(N2CCN(CCCCCCCCCCCCNC(=O)CC34CC5CC(CC(C5)C3)C4)CC2)ccc1Nc1ncc2c(C)cc(=O)n(-c3cccc(NC(C)=O)c3)c2n1 with RAC-gamma serine/threonine-protein kinase (Homo sapiens, UniProt Q9Y243) as test system. 68

Find the measured Emax of C=CC(=O)Nc1cccc(-n2c(=O)cc(C)c3cnc(Nc4ccc(N5CCN(CCOCCOCCNC(=O)CC67CC8CC(CC(C8)C6)C7)CC5)cc4OC)nc32)c1 with RAC-gamma serine/threonine-protein kinase (Homo sapiens, UniProt Q9Y243) as test system. 55

Find the measured Emax of COc1cc(N2CCN(CCCCCCCCCCCCNC(=O)CC34CC5CC(CC(C5)C3)C4)CC2)ccc1Nc1ncc2c(C)cc(=O)n(-c3cccc(NC(=O)C4CC4)c3)c2n1 with RAC-gamma serine/threonine-protein kinase (Homo sapiens, UniProt Q9Y243) as test system. 88

Find the measured Emax of COc1cc(N2CCN(CCCCCCCCCCCCNC(=O)CC34CC5CC(CC(C5)C3)C4)CC2)ccc1Nc1ncc2c(C)cc(=O)n(-c3cccc(NC(=O)C(C)(C)C)c3)c2n1 with RAC-gamma serine/threonine-protein kinase (Homo sapiens, UniProt Q9Y243) as test system. 77
